System: Mythimna separata
Test: Insecticidal activity against second-instar larvae of Mythimna separata (Oriental armyworm) fed on compound-treated mealie leaves measured after 5 days
Type: functional
Settings: 120 h
Each record here notes measured LC50.

Guide cases for LC50, answers given:
COMPOUND: Fc1cc(-c2nnc(COc3ccc(Cl)cc3)o2)c(Cl)cc1Cl
MEASUREMENT KIND: LC50
RESULT: 55 µM

COMPOUND: Clc1ccc(OCc2nnc(-c3ccc(Cl)cc3Cl)o2)c(Cl)c1
MEASUREMENT KIND: LC50
RESULT: 776 µM

COMPOUND: Fc1cc(-c2nnc(COc3ccc(Cl)cc3Cl)o2)c(Cl)cc1Cl
MEASUREMENT KIND: LC50
RESULT: 1700 µM

COMPOUND: CC1(C)C(C=C(Cl)Cl)C1c1nnc(-c2ccc(Cl)cc2)o1 (mixture of isomers)
MEASUREMENT KIND: LC50
RESULT: > 1000 µM

COMPOUND: COc1ccc(-c2nnc(C3C(C=C(Cl)Cl)C3(C)C)o2)cc1 (mixture of isomers)
MEASUREMENT KIND: LC50
RESULT: > 1000 µM

Asked: May I ask what LC50 has been recorded for Fc1cc(-c2nnc(COc3ccccc3Cl)o2)c(Cl)cc1Cl ?
Given back: 14.5 µM

Asked: Now this one: Clc1ccc(OCc2nnc(-c3ccc(Cl)cc3Cl)o2)cc1
Given back: 15.8 µM

Asked: Now this one: CC1(C)[C@@H](C=C(Cl)Cl)[C@@H]1c1nnc(-c2ccc(Cl)cc2Cl)o1 (relative stereo)
Given back: 123 µM

Asked: Now this one: CC1(C)C(C=C(Cl)Cl)C1c1nnc(-c2cccs2)o1 (mixture of isomers)
Given back: > 1000 µM

Asked: Now this one: Clc1ccc(OCc2nnc(-c3ccc(Cl)nc3)o2)cc1
Given back: > 1000 µM

====

Each record here notes measured LC50.
System: Mythimna separata
Test: Insecticidal activity against second-instar larvae of Mythimna separata (Oriental armyworm) fed on compound-treated mealie leaves measured after 5 days
Assay type: functional
Conditions: 120 h

MOLECULE: Fc1cccc(-c2nnc(COc3ccc(Cl)cc3)o2)c1
LC50: > 1000 µM
--
MOLECULE: CC1(C)C(C=C(Cl)Cl)C1c1nnc(/C=C/c2ccccc2)o1 (mixture of isomers)
LC50: > 1000 µM
--
MOLECULE: Clc1ccc(OCc2nnc(-c3cccnc3Cl)o2)cc1
LC50: > 1000 µM

Note: attention shifts to another entry.
Asked: May I ask what LC50 has been recorded for CC1(C)[C@@H](C=C(Cl)Cl)[C@@H]1c1nnc(-c2ccccc2)o1 (relative stereo) ?
Given back: 1380 µM
